# reported Percent Effect; entries follow
Tested on: Plasmodium falciparum
experiment description: Calibr Malaria Delayed Death Assay SOP
Type: functional, organism-based
Set-up: scale not given: in the data most compounds retested in dose-response had high values
test parameters: concentration 4.99e-06 (unit not given; other assays of the set use mol/L)
Screen size: about 38,000 compounds; about 1,200 (3.2%) showed an effect of 50% or more. The median lay at about -58%. Only a selection was taken, and strong results are over-represented in it overall.
// note: answer is a bare numeric in %

Example entries and their recorded answers appear below.
1) CN1CCN(C(=O)c2cc3occc3n2Cc2ccccc2F)CC1 = -0.5316
2) O=C(c1scc2c1OCCO2)N1CCOC(Cc2ccc(F)cc2)C1 (stereo unspecified) = -16.04

Record request: Percent Effect value, item Cc1cnc(NC(=O)CSC2CCc3ccccc3NC2=O)s1 (stereo unspecified)
-9.765

Now give it for CN1CCN(C(=O)c2occc2CN2C(=O)Cc3ccccc32)CC1 too.
53.65

Now give it for CC(C)COC(=O)N1[C@@H](c2ccco2)[C@@H](CO)C[C@]12CCCCNC2=O too.
-86.33

Now give it for O=C(c1scc2c1OCCO2)N1CCOC(Cc2cccc(F)c2)C1 (stereo unspecified) too.
-44.17
